- measured_on: KDR/VEGFR2 (Homo sapiens, UniProt P35968)
- Sequence (P35968 20-1356): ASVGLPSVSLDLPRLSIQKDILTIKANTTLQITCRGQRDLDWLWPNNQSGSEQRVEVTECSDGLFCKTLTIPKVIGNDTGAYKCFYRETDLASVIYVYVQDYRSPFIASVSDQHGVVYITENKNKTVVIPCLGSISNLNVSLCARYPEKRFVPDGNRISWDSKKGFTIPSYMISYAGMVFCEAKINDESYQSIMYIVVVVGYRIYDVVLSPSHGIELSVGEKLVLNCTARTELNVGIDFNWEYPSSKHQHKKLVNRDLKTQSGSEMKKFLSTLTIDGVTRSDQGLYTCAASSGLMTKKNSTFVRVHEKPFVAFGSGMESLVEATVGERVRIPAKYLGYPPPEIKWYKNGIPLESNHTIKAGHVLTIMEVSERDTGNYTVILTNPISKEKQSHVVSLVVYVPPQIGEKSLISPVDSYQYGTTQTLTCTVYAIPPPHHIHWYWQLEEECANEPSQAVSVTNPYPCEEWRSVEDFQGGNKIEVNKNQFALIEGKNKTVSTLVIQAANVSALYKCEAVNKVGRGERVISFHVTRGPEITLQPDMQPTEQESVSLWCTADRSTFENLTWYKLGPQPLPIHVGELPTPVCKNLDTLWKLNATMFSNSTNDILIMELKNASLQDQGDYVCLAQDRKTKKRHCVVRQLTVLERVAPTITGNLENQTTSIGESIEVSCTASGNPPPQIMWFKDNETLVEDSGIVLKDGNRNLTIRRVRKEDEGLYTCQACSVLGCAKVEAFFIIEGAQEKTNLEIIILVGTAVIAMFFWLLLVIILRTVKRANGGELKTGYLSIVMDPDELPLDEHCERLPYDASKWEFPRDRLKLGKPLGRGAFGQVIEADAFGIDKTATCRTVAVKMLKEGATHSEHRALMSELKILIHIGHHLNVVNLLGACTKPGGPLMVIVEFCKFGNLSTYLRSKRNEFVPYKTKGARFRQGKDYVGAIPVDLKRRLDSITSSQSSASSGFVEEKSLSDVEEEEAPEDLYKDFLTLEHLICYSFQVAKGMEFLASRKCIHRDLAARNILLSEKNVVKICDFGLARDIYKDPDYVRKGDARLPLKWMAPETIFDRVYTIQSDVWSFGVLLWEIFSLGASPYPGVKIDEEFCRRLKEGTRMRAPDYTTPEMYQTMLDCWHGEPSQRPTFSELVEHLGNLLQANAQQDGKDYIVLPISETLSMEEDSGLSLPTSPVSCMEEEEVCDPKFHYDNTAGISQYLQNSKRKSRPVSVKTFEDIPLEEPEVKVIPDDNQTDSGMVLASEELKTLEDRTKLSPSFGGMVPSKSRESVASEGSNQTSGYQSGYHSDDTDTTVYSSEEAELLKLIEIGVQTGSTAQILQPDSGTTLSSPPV
- test_details: HotSpot Kinase Assay, KDR/VEGFR2
attribute_measured: IC50

>>> result("COc1cc2nccc(Oc3ccc(NC(=O)C4(C(=O)Nc5ccc(F)cc5)CC4)cc3)c2cc1OC(=O)N1CCN(C)CC1")
"< 100 nM"
>>> result("COc1cc2nccc(Oc3ccc(NC(=O)C4(C(=O)Nc5ccc(F)cc5)CC4)cc3)c2cc1OC(=O)N1CCNC[C@H]1C")
"< 100 nM"
>>> result("COc1cc2c(Oc3ccc(NC(=O)C4(C(=O)Nc5ccc(F)cc5)CC4)cc3)ccnc2cc1OC(=O)N1Cc2cn(S(C)(=O)=O)nc2C1")
"> 1000 nM"
>>> result("COc1cc2c(Oc3ccc(NC(=O)C4(C(=O)Nc5ccc(F)cc5)CC4)cc3)ccnc2cc1OC(=O)N1CCNC[C@H]1C")
"100 to 1000 nM"
>>> result("COc1cc2nccc(Oc3ccc(NC(=O)C4(C(=O)Nc5ccc(F)cc5)CC4)cc3)c2cc1OC(=O)N1CCNCC1(C)C")
"< 100 nM"
>>> result("COc1cc2c(Oc3ccc(NC(=O)C4(C(=O)Nc5ccc(F)cc5)CC4)cc3F)ncnc2cc1OC(=O)N1CCNC[C@H]1C")
"100 to 1000 nM"

====

- measured_on: c-MER (Homo sapiens, UniProt Q12866)
- Sequence (Q12866 21-999): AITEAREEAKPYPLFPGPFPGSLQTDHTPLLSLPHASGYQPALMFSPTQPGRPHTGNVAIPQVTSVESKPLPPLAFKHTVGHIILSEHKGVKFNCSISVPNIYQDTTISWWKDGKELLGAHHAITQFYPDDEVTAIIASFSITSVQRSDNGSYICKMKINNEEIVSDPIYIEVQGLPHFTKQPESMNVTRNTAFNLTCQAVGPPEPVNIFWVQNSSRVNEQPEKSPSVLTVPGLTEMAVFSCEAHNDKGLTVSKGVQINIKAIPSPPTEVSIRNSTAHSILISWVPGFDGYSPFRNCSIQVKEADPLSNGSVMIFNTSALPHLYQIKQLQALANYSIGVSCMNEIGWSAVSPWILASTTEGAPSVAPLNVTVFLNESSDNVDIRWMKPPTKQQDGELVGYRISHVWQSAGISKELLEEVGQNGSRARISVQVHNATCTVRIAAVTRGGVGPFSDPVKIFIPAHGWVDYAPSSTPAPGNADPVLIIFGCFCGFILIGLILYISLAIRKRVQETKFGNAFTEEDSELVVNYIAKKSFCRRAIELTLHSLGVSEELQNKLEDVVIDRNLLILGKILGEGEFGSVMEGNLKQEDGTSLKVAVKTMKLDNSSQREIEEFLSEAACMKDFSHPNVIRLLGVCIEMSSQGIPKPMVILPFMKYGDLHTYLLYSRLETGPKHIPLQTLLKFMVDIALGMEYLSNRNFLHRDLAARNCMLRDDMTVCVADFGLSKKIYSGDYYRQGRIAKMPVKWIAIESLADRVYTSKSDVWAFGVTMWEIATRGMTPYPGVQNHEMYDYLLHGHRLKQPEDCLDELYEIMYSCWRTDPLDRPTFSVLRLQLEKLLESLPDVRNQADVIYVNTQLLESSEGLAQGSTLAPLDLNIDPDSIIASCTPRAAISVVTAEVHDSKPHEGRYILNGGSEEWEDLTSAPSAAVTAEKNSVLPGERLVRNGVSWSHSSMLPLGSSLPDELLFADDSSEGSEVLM
pIC50: −log10 of the molar value.
# reported pIC50; entries follow
attribute_measured: pIC50

>>> result("COc1cc2c(Oc3ccc(NC(=O)C4(C(=O)Nc5ccc(F)cc5)CC4)cc3)ncnc2cc1OC(=O)N1CCN(C)C[C@H]1C")
"6.00 to 7.00"
>>> result("COc1cc2c(Oc3ccc(NC(=O)C4(C(=O)Nc5ccc(F)cc5)CC4)cc3)ccnc2cc1OC(=O)N1CCNC[C@H]1C")
"> 7.00"
>>> result("COc1cc2c(Oc3ccc(NC(=O)C4(C(=O)Nc5ccc(F)cc5)CC4)cc3)ccnc2cc1OC(=O)N1CCN(C)[C@@H](C)C1")
"> 7.00"
>>> result("COc1cc2c(Oc3ccc(NC(=O)C4(C(=O)Nc5ccc(F)cc5)CC4)cc3)ccnc2cc1OC(=O)N1CCOCC1")
"> 7.00"
>>> result("COc1cc2nccc(Oc3ccc(NC(=O)C4(C(=O)Nc5ccc(F)cc5)CC4)cc3)c2cc1OC(=O)N1CCNCC1(C)C")
"> 7.00"
>>> result("COc1cc2nccc(Oc3ccc(NC(=O)C4(C(=O)Nc5ccc(F)cc5)CC4)cc3)c2cc1OC(=O)N1CCN(C)CC1(C)C")
"> 7.00"

====

- measured_on: TIE2/TEK (Homo sapiens, UniProt Q02763)
- Sequence (Q02763 23-1124): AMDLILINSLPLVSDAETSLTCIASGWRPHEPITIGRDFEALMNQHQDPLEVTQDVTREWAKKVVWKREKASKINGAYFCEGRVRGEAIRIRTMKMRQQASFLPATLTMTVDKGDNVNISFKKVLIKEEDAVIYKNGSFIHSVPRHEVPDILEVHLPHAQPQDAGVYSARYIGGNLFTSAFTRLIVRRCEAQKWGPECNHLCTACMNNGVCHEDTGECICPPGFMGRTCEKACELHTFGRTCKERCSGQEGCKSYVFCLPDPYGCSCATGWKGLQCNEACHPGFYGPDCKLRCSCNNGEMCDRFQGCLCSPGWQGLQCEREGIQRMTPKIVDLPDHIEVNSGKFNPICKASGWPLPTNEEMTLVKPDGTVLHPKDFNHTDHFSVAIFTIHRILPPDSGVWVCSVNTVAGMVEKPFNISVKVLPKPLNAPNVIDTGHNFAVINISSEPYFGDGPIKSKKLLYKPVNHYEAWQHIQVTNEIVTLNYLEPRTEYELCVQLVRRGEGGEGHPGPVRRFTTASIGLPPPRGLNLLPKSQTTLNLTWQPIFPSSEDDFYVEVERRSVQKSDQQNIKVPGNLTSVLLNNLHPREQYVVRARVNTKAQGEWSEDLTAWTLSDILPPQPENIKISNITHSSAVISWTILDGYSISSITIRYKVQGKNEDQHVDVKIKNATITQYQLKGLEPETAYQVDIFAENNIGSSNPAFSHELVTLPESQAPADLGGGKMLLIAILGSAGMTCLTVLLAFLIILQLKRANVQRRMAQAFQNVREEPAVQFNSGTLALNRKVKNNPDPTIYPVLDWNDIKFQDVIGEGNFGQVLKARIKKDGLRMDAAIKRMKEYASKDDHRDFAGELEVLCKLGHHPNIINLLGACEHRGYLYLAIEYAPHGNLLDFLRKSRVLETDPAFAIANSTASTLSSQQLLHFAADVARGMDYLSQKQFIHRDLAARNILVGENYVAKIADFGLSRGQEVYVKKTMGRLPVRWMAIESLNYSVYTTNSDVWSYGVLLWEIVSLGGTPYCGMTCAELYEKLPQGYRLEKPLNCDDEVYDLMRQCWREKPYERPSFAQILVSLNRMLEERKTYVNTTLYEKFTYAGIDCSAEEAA
- test_details: HotSpot Kinase Assay, TIE2/TEK
pIC50: −log10 of the molar value.
attribute_measured: pIC50

>>> result("COc1cc2c(Oc3ccc(NC(=O)C4(C(=O)Nc5ccc(F)cc5)CC4)cc3)ccnc2cc1OC(=O)N1CCN(C)CC1")
"< 6.00"

====

Entries below carry reported IC50 on UniProt:P29317.
Sequence (P29317 24-976): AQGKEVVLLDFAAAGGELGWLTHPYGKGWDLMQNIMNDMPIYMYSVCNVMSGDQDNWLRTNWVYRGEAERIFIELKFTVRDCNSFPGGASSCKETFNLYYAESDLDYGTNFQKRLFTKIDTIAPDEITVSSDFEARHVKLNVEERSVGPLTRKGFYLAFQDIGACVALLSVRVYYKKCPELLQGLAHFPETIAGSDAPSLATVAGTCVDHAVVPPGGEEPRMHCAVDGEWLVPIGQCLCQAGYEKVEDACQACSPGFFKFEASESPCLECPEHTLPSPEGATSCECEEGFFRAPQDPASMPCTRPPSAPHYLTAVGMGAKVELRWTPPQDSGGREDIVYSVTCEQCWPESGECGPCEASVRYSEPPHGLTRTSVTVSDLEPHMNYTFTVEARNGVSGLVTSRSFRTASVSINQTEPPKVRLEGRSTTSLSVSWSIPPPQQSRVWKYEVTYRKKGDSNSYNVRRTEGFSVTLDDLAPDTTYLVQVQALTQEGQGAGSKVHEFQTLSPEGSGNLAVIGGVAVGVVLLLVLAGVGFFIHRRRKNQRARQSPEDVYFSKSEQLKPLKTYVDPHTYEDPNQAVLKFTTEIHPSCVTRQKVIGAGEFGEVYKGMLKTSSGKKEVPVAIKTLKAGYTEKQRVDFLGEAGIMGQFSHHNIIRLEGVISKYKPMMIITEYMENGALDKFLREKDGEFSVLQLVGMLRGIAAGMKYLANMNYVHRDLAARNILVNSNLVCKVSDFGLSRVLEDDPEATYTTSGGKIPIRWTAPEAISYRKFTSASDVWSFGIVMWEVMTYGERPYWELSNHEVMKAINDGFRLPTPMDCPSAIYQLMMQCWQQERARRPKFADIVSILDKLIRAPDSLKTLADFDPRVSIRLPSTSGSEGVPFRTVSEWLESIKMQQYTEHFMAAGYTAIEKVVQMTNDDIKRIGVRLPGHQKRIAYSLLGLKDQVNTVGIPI
attribute_measured: IC50

>>> result("COc1cc2nccc(Oc3ccc(NC(=O)C4(C(=O)Nc5ccc(F)cc5)CC4)cc3)c2cc1OC(=O)N1[C@H](C)CN(C)C[C@@H]1C [Compound 7-5]")
"100 to 1000 nM"
>>> result("COc1cc2c(Oc3ccc(NC(=O)C4(C(=O)Nc5ccc(F)cc5)CC4)cc3)ccnc2cc1OC(=O)N1CCOCC1 [Compound 1-17]")
"100 to 1000 nM"
>>> result("COc1cc2c(Oc3ccc(NC(=O)C4(C(=O)Nc5ccc(F)cc5)CC4)cc3F)ccnc2cc1OC(=O)N1CCN(C)C[C@H]1C [Compound 3-5]")
"< 100 nM"
>>> result("COc1cc2c(Oc3ccc(NC(=O)C4(C(=O)Nc5ccc(F)cc5)CC4)cc3)ccnc2cc1OC(=O)N1[C@H](C)CNC[C@@H]1C [Compound 6-2]")
"100 to 1000 nM"
>>> result("COc1cc2c(Oc3ccc(NC(=O)C4(C(=O)Nc5ccc(F)cc5)CC4)cc3)ccnc2cc1OC(=O)N1CCN(C)C[C@H]1C [Compound 1-11]")
"100 to 1000 nM"

====

Below are IC50 values recorded for c-MET (Homo sapiens, UniProt P08581).
attribute_measured: IC50

>>> result("COc1cc2c(Oc3ccc(NC(=O)C4(C(=O)Nc5ccc(F)cc5)CC4)cc3F)ncnc2cc1OC(=O)N1CCN(C)C[C@H]1C [Compound 9-6]")
"< 100 nM"
>>> result("COc1cc2c(Oc3ccc(NC(=O)C4(C(=O)Nc5ccc(F)cc5)CC4)cc3)ccnc2cc1OC(=O)N1[C@H](C)CNC[C@@H]1C [Compound 6-2]")
"100 to 1000 nM"
>>> result("COc1cc2nccc(Oc3ccc(NC(=O)C4(C(=O)Nc5ccc(F)cc5)CC4)cc3)c2cc1OC(=O)N1[C@H](C)CN(C)C[C@@H]1C [Compound 7-5]")
"< 100 nM"
>>> result("COc1cc2c(Oc3ccc(NC(=O)C4(C(=O)Nc5ccc(F)cc5)CC4)cc3)ccnc2cc1OC(=O)N1CCN(C)[C@H](C)C1 [Compound 2-2]")
"< 100 nM"
>>> result("COc1cc2c(Oc3ccc(NC(=O)C4(C(=O)Nc5ccc(F)cc5)CC4)cc3)ccnc2cc1OC(=O)N(C)C [Compound 1-15]")
"100 to 1000 nM"
>>> result("COc1cc2nccc(Oc3ccc(NC(=O)C4(C(=O)Nc5ccc(F)cc5)CC4)cc3)c2cc1OC(=O)N1CCNC[C@H]1C [Compound 7-2]")
"< 100 nM"
>>> result("COc1cc2nccc(Oc3ccc(NC(=O)C4(C(=O)Nc5ccc(F)cc5)CC4)cc3)c2cc1OC(=O)N1CCN(C)CC1(C)C [Compound 7-7]")
"< 100 nM"
>>> result("COc1cc2c(Oc3ccc(NC(=O)C4(C(=O)Nc5ccc(F)cc5)CC4)cc3)ccnc2cc1OC(=O)N1CCN(C)CC1(C)C [Compound 6-6]")
"100 to 1000 nM"
>>> result("COc1cc2nccc(Oc3ccc(NC(=O)C4(C(=O)Nc5ccc(F)cc5)CC4)cc3)c2cc1OC(=O)N1CCN(C)CC1 [Compound 5-10]")
"< 100 nM"
>>> result("COc1cc2c(Oc3ccc(NC(=O)C4(C(=O)Nc5ccc(F)cc5)CC4)cc3)ccnc2cc1OC(=O)N1CCNC[C@H]1C [Compound 6-4]")
"< 100 nM"
>>> result("COc1cc2c(Oc3ccc(NC(=O)C4(C(=O)Nc5ccc(F)cc5)CC4)cc3)ccnc2cc1OC(=O)N1CCNCC1(C)C [Compound 6-5]")
"< 100 nM"
>>> result("COc1cc2c(Oc3ccc(NC(=O)C4(C(=O)Nc5ccc(F)cc5)CC4)cc3)ccnc2cc1OC(=O)N1CCN(C)C[C@H]1C [Compound 1-11]")
"< 100 nM"
>>> result("COc1cc2c(Oc3ccc(NC(=O)C4(C(=O)Nc5ccc(F)cc5)CC4)cc3)ccnc2cc1OC(=O)N1Cc2cn(S(C)(=O)=O)nc2C1 [Compound 1-16]")
"< 100 nM"
>>> result("COc1cc2nccc(Oc3ccc(NC(=O)C4(C(=O)Nc5ccc(F)cc5)CC4)cc3)c2cc1OC(=O)N1[C@H](C)CNC[C@@H]1C [Compound 7-4]")
"< 100 nM"
>>> result("COc1cc2nccc(Oc3ccc(NC(=O)C4(C(=O)Nc5ccc(F)cc5)CC4)cc3)c2cc1OC(=O)N1CCN(C)C[C@H]1C [Compound 7-3]")
"< 100 nM"
>>> result("COc1cc2c(Oc3ccc(NC(=O)C4(C(=O)Nc5ccc(F)cc5)CC4)cc3F)ccnc2cc1OC(=O)N1CCN(C)C[C@@H]1C [Compound 3-6]")
"< 100 nM"
>>> result("COc1cc2c(Oc3ccc(NC(=O)C4(C(=O)Nc5ccc(F)cc5)CC4)cc3)ncnc2cc1OC(=O)N1CCNC[C@H]1C [Compound 8-5]")
"100 to 1000 nM"
>>> result("COc1cc2c(Oc3ccc(NC(=O)C4(C(=O)Nc5ccc(F)cc5)CC4)cc3)ccnc2cc1OC(=O)N1[C@H](C)CN(C)C[C@@H]1C [Compound 6-3]")
"100 to 1000 nM"
>>> result("COc1cc2c(Oc3ccc(NC(=O)C4(C(=O)Nc5ccc(F)cc5)CC4)cc3)ccnc2cc1OC(=O)N1CCN(C)CC1 [Compound 1-10]")
"< 100 nM"
>>> result("COc1cc2c(Oc3ccc(NC(=O)C4(C(=O)Nc5ccc(F)cc5)CC4)cc3)ccnc2cc1OC(=O)N1CCCC1 [Compound 1-14]")
"< 100 nM"
>>> result("COc1cc2c(Oc3ccc(NC(=O)C4(C(=O)Nc5ccc(F)cc5)CC4)cc3)ccnc2cc1OC(=O)N1C[C@@H]2C[C@H]1CN2C [Compound 2-7]")
"< 100 nM"
>>> result("COc1cc2c(Oc3ccc(NC(=O)C4(C(=O)Nc5ccc(F)cc5)CC4)cc3)ncnc2cc1OC(=O)N1CCN(C)C[C@H]1C [Compound 8-6]")
"100 to 1000 nM"
>>> result("COc1cc2c(Oc3ccc(NC(=O)C4(C(=O)Nc5ccc(F)cc5)CC4)cc3)ccnc2cc1OC(=O)N1CCN(C)C[C@@H]1C [Compound 1-12]")
"< 100 nM"
>>> result("COc1cc2c(Oc3ccc(NC(=O)C4(C(=O)Nc5ccc(F)cc5)CC4)cc3)ccnc2cc1OC(=O)N1CCC(F)(F)CC1 [Compound 1-13]")
"< 100 nM"
>>> result("COc1cc2c(Oc3ccc(NC(=O)C4(C(=O)Nc5ccc(F)cc5)CC4)cc3F)ncnc2cc1OC(=O)N1CCNC[C@H]1C [Compound 9-5]")
"< 100 nM"
